Property: IC50; scope: individual compounds
- test: Cytotoxicity against HEK293T cells after 36 hrs by MTT assay
- Assay type: cell-based
- condition: Homo sapiens, HEK-293T

compound | IC50
COc1cc(C2c3cc4c(cc3[C@H](OC(=O)C(C)N3C(=O)C5CCCCC5C3=O)[C@H]3COC(=O)[C@H]23)OCO4)cc(OC)c1OC (some centres undefined) | 90.7 µM
COc1cc(C2c3cc4c(cc3[C@H](OC(=O)C(Cc3ccccc3)N3C(=O)c5ccccc5C3=O)[C@H]3COC(=O)[C@H]23)OCO4)cc(OC)c1OC (some centres undefined) | 65.9 µM
O=C1OC(=O)C2C3CCC(O3)C12 (centres undefined) | 9.81 µM
COc1cc(C2c3cc4c(cc3[C@H](OC(=O)[C@H](C)N3C(=O)C5C6CCC(O6)C5C3=O)[C@H]3COC(=O)[C@H]23)OCO4)cc(OC)c1OC (some centres undefined) | 64.2 µM

====

Property: pIC50; scope: individual compounds
- Tested on: HeLa
- test: Cytotoxicity against human HeLa cells after 36 hrs by MTT assay
- Assay type: functional, cell-based
pIC50: −log10 of the molar value.

compound | system name | pIC50
COc1cc(C2c3cc4c(cc3[C@H](OC(=O)C(C)N3C(=O)C5CCCCC5C3=O)[C@H]3COC(=O)[C@H]23)OCO4)cc(OC)c1OC (stereo partly drawn) | HeLa | 5.70
COc1cc(C2c3cc4c(cc3[C@H](OC(=O)[C@H](Cc3ccccc3)N3C(=O)c5ccccc5C3=O)[C@H]3COC(=O)[C@H]23)OCO4)cc(OC)c1OC (stereo partly drawn) | HeLa | 4.90
COc1cc(C2c3cc4c(cc3[C@H](OC(=O)C(Cc3ccccc3)N3C(=O)C5CCCCC5C3=O)[C@H]3COC(=O)[C@H]23)OCO4)cc(OC)c1OC (stereo partly drawn) | HeLa | 5.65

====

- Tested on: MCF7
- test: Cytotoxicity against human MCF7 cells after 36 hrs by MTT assay
- Format: functional, cell-based
- condition: MCF7, 36 h
pIC50: −log10 of the molar value.
measured property: pIC50

molecule | system name | measured property | reported measurement
COc1cc(C2c3cc4c(cc3[C@H](OC(=O)[C@H](Cc3ccccc3)N3C(=O)C5C6CCC(O6)C5C3=O)[C@H]3COC(=O)[C@H]23)OCO4)cc(OC)c1OC (some centres not stated) | MCF7 | pIC50 | 5.19
COc1cc(C2c3cc4c(cc3[C@H](OC(=O)[C@@H](C)N3C(=O)C5CCCCC5C3=O)[C@H]3COC(=O)[C@H]23)OCO4)cc(OC)c1OC (some centres not stated) | MCF7 | pIC50 | 5.60
COc1cc(C2c3cc4c(cc3[C@H](OC(=O)[C@H](C)N3C(=O)c5ccccc5C3=O)[C@H]3COC(=O)[C@H]23)OCO4)cc(OC)c1OC (some centres not stated) | MCF7 | pIC50 | 4.74
O=C1OC(=O)C2C3CCC(O3)C12 (configuration not stated) | MCF7 | pIC50 | 4.92
COc1cc(C2c3cc4c(cc3[C@H](OC(=O)[C@@H](C)N3C(=O)c5ccccc5C3=O)[C@H]3COC(=O)[C@H]23)OCO4)cc(OC)c1OC (some centres not stated) | MCF7 | pIC50 | 5.08
COc1cc(C2c3cc4c(cc3[C@H](OC(=O)[C@H](Cc3ccccc3)N3C(=O)C5CCCCC5C3=O)[C@H]3COC(=O)[C@H]23)OCO4)cc(OC)c1OC (some centres not stated) | MCF7 | pIC50 | 5.08
COc1cc(C2c3cc4c(cc3[C@H](OC(=O)C(C)N3C(=O)C5CCCCC5C3=O)[C@H]3COC(=O)[C@H]23)OCO4)cc(OC)c1OC (some centres not stated) | MCF7 | pIC50 | 5.73
COc1cc(C2c3cc4c(cc3[C@H](OC(=O)C(Cc3ccccc3)N3C(=O)C5CCCCC5C3=O)[C@H]3COC(=O)[C@H]23)OCO4)cc(OC)c1OC (some centres not stated) | MCF7 | pIC50 | 5.93
COc1cc([C@@H]2c3cc4c(cc3[C@@H](O[C@@H]3O[C@@H]5CO[C@@H](C)O[C@H]5[C@H](O)[C@H]3O)[C@H]3COC(=O)[C@H]23)OCO4)cc(OC)c1O [ETOPOSIDE] | MCF7 | pIC50 | 5.76
COc1cc(C2c3cc4c(cc3[C@H](OC(=O)[C@@H](Cc3ccccc3)N3C(=O)c5ccccc5C3=O)[C@H]3COC(=O)[C@H]23)OCO4)cc(OC)c1OC (some centres not stated) | MCF7 | pIC50 | 4.59
COc1cc(C2c3cc4c(cc3[C@H](OC(=O)[C@@H](C)N3C(=O)C5C6CCC(O6)C5C3=O)[C@H]3COC(=O)[C@H]23)OCO4)cc(OC)c1OC (some centres not stated) | MCF7 | pIC50 | 5.93
COc1cc(C2c3cc4c(cc3[C@H](OC(=O)C(Cc3ccccc3)N3C(=O)C5C6CCC(O6)C5C3=O)[C@H]3COC(=O)[C@H]23)OCO4)cc(OC)c1OC (some centres not stated) | MCF7 | pIC50 | 6.06

====

- Test system: MCF7
- test: Cytotoxicity against human MCF7 cells after 36 hrs by MTT assay
- Assay type: functional, cell-based
- condition: MCF7, 36 h
pIC50: −log10 of the molar value.
Property: pIC50; scope: individual compounds
measured property: pIC50

compound | measured property | reported measurement
COc1cc(C2c3cc4c(cc3[C@H](OC(=O)[C@H](C)N3C(=O)C5C6CCC(O6)C5C3=O)[C@H]3COC(=O)[C@H]23)OCO4)cc(OC)c1OC (stereo partly drawn) | pIC50 | 5.91
COc1cc([C@@H]2c3cc4c(cc3[C@H](O)[C@H]3COC(=O)[C@H]23)OCO4)cc(OC)c1OC | pIC50 | 5.95
COc1cc(C2c3cc4c(cc3[C@H](OC(=O)[C@H](C)N3C(=O)C5CCCCC5C3=O)[C@H]3COC(=O)[C@H]23)OCO4)cc(OC)c1OC (stereo partly drawn) | pIC50 | 5.34

====

- Tested on: HeLa
- test: Cytotoxicity against human HeLa cells after 36 hrs by MTT assay
- Type: functional, cell-based
hey, just use Yes if measured IC50 is less than 10 µM, otherwise No

compound | answer label
COc1cc(C2c3cc4c(cc3[C@H](OC(=O)C(Cc3ccccc3)N3C(=O)C5C6CCC(O6)C5C3=O)[C@H]3COC(=O)[C@H]23)OCO4)cc(OC)c1OC (stereo partly specified) | Yes
COc1cc(C2c3cc4c(cc3[C@H](OC(=O)[C@@H](Cc3ccccc3)N3C(=O)C5C6CCC(O6)C5C3=O)[C@H]3COC(=O)[C@H]23)OCO4)cc(OC)c1OC (stereo partly specified) | Yes
COc1cc(C2c3cc4c(cc3[C@H](OC(=O)[C@@H](C)N3C(=O)C5CCCCC5C3=O)[C@H]3COC(=O)[C@H]23)OCO4)cc(OC)c1OC (stereo partly specified) | Yes
COc1cc(C2c3cc4c(cc3[C@H](OC(=O)[C@@H](C)N3C(=O)c5ccccc5C3=O)[C@H]3COC(=O)[C@H]23)OCO4)cc(OC)c1OC (stereo partly specified) | No
COc1cc(C2c3cc4c(cc3[C@H](OC(=O)[C@H](Cc3ccccc3)N3C(=O)C5CCCCC5C3=O)[C@H]3COC(=O)[C@H]23)OCO4)cc(OC)c1OC (stereo partly specified) | Yes
COc1cc(C2c3cc4c(cc3[C@H](OC(=O)[C@@H](Cc3ccccc3)N3C(=O)c5ccccc5C3=O)[C@H]3COC(=O)[C@H]23)OCO4)cc(OC)c1OC (stereo partly specified) | No

====

- System: HeLa
- test: Cytotoxicity against human HeLa cells after 36 hrs by MTT assay
- Format: functional, cell-based
Property: IC50; scope: individual compounds
measured property: IC50 (µM)

compound | reported measurement
COc1cc(C2c3cc4c(cc3[C@H](OC(=O)[C@H](Cc3ccccc3)N3C(=O)C5C6CCC(O6)C5C3=O)[C@H]3COC(=O)[C@H]23)OCO4)cc(OC)c1OC (some centres not stated) | 8.79
COc1cc([C@@H]2c3cc4c(cc3[C@@H](O[C@@H]3O[C@@H]5CO[C@@H](C)O[C@H]5[C@H](O)[C@H]3O)[C@H]3COC(=O)[C@H]23)OCO4)cc(OC)c1O [ETOPOSIDE] | 4.39
COc1cc(C2c3cc4c(cc3[C@H](OC(=O)[C@H](C)N3C(=O)c5ccccc5C3=O)[C@H]3COC(=O)[C@H]23)OCO4)cc(OC)c1OC (some centres not stated) | 19
COc1cc(C2c3cc4c(cc3[C@H](OC(=O)C(Cc3ccccc3)N3C(=O)c5ccccc5C3=O)[C@H]3COC(=O)[C@H]23)OCO4)cc(OC)c1OC (some centres not stated) | 7.12
COc1cc(C2c3cc4c(cc3[C@H](OC(=O)C(C)N3C(=O)C5C6CCC(O6)C5C3=O)[C@H]3COC(=O)[C@H]23)OCO4)cc(OC)c1OC (some centres not stated) | 1.86
COc1cc(C2c3cc4c(cc3[C@H](OC(=O)C(C)N3C(=O)c5ccccc5C3=O)[C@H]3COC(=O)[C@H]23)OCO4)cc(OC)c1OC (some centres not stated) | 17.2
COc1cc(C2c3cc4c(cc3[C@H](OC(=O)[C@H](C)N3C(=O)C5CCCCC5C3=O)[C@H]3COC(=O)[C@H]23)OCO4)cc(OC)c1OC (some centres not stated) | 5.81
O=C1OC(=O)C2C3CCC(O3)C12 (configuration not stated) | 9.03
COc1cc(C2c3cc4c(cc3[C@H](OC(=O)[C@@H](C)N3C(=O)C5C6CCC(O6)C5C3=O)[C@H]3COC(=O)[C@H]23)OCO4)cc(OC)c1OC (some centres not stated) | 1.14
COc1cc(C2c3cc4c(cc3[C@H](OC(=O)[C@@H](Cc3ccccc3)N3C(=O)C5CCCCC5C3=O)[C@H]3COC(=O)[C@H]23)OCO4)cc(OC)c1OC (some centres not stated) | 3.89
COc1cc(C2c3cc4c(cc3[C@H](OC(=O)[C@H](C)N3C(=O)C5C6CCC(O6)C5C3=O)[C@H]3COC(=O)[C@H]23)OCO4)cc(OC)c1OC (some centres not stated) | 3.02
COc1cc([C@@H]2c3cc4c(cc3[C@H](O)[C@H]3COC(=O)[C@H]23)OCO4)cc(OC)c1OC | 1.45
